Origin of measurements: the supplement of paper PMC13380429

# System: Vero E6
# assayProtocol: cell viability relative to DMSO; higher = less toxic
# conditionDescription: 72 h; 10000 nM
Consider the following compounds; for each one, report its cell viability.
The figure you give is taken to be in %; do not add the unit.

Prompt: In one line, give reported cell viability of the entry `Cc1c(-c2ccc(-c3ccccc3F)cc2)nc2ccc(F)cc2c1C(=O)O` .
Response: 64.2

Prompt: In one line, give reported cell viability of the entry Nc1cccc2c1C(=O)N(C1CCC(=O)NC1=O)C2=O (centres undefined) [pomalidomide] .
Response: 103

Prompt: In one line, give reported cell viability of the entry `CC(=O)Nc1ccc(C(=O)NC(C)(C)C)cc1` .
Response: 91.8

Prompt: In one line, give reported cell viability of the entry `Cc1cc(=O)oc2c(C=O)c(O)ccc12` .
Response: 100

Prompt: In one line, give reported cell viability of the entry `CCN(CC)CCCCN1c2ccccc2Oc2ccc(Cl)cc21` .
Response: 63

Prompt: In one line, give reported cell viability of the entry `N#CCCCSC(=N)N` .
Response: 98.9

Prompt: In one line, give reported cell viability of the entry `COc1c(Nc2ccc(S(C)(=O)=O)nc2C)ncnc1OC1CCN(C(=O)OC(C)C)CC1` .
Response: 95.5

Prompt: In one line, give reported cell viability of the entry CN1[C@@H]2CC[C@H]1C[C@@H](OC(c1ccccc1)c1ccccc1)C2 [benztropine-mesylate] .
Response: 93.8

Prompt: In one line, give reported cell viability of the entry `CN1CCN(c2ccc(-c3cccc(CN4CCOCC4)c3)cc2NC(=O)c2c[nH]c(=O)cc2C(F)(F)F)CC1` .
Response: 95.1
